Tested on: MS2 coat protein
PROTOCOL_DETAILS: apparent KD of MS2 coat protein; designed switch direction (-1 OFF switch, 1 ON switch): -1; higher = weaker reporter binding
STUDY_CONDITIONS: input ligand: none
MEASURED_PROPERTY: apparent KD of MS2 coat protein (nM)
Entry rule: numbers only, all in nM.

{"columns": ["RESIDUE_SEQUENCE", "apparent KD of MS2 coat protein [nM]"],
 "data": [
  ["ACAUGAGGAUCACCCAUGUCUGGCUGGUCCGUCUCGGCUGUCGAGGAUAUAGCUCGGUGUCCGCGCUAGAAGGCGGGAGCUGGU [Aenatbe mod 82] (Eterna round: R96, puzzle: Exclusion NG 3)", 143],
  ["GAAUAGCGAGGAUAUGCAAUGAAGGUAGUACGAUAUGGCUGACAUGAGGAUCACCCAUGUAGAAGGCGCUGAUC [EX2 #11] (Eterna round: R97, puzzle: Exclusion 2)", 65.8]
]}

Proceed to the following item.
Problem: Endpoint output: apparent KD of MS2 coat protein of GGCUGACGCGGUAGGCCUUACAUGAGGAUCACCCAUGUCGAUGCCAUUCCAAAACACGGGUUUGAGGUUCGUCAUUG [Eternabot (L1) Solution 46] (Eterna round: R97, puzzle: Sensor, turn-off variant 1) . Value?
Result: 100
